Some molecules, each annotated with its measured MIC E. coli.
- System: E. coli ATCC 35218
- Type: cell-based
- Procedure: MICs against B. subtilis and E. coli screening bacterial strains were determined using serial dilution in 96-well microtiter plates in accordance with CLSI M7-A6 protocols. Briefly, peptoid solution in cation-adjusted Mueller-Hinton broth was prepared by 2:1 serial dilution with a total volume of 50 µL per well. In experimental wells, 50 µL of bacterial inoculums (1 x 10^6 CFU/mL) were added to the peptoid solutions. […]
Square brackets hold non-standard residues; d marks the D form. Peptide text beside a SMILES is read from it. Nspe = C[C@H](NCC(=O)O)c1ccccc1; Nphe = O=C(O)CNCc1ccccc1; Nlys = NCCCCNCC(=O)O
Answer format: numeric, µM implied, no suffix.

Would you please look over these solved cases?
Just so you know, measured MIC E. coli for C[C@H](c1ccccc1)N(CC(N)=O)C(=O)CN(C(=O)CN(CCCCN)C(=O)CN(C(=O)CN(C(=O)CN(CCCCN)C(=O)CN(C(=O)CN(C(=O)CN(CCCCN)C(=O)CN(C(=O)CN(C(=O)CNCCCCN)[C@@H](C)c1ccccc1)[C@H](C)c1ccccc1)[C@@H](C)c1ccccc1)[C@H](C)c1ccccc1)[C@@H](C)c1ccccc1)[C@H](C)c1ccccc1)[C@@H](C)c1ccccc1 [1-Nrpe3,6,9,12, H-(NLys-Nspe-Nrpe)4-NH2] came out at 6.3

Just so you know, measured MIC E. coli for C[C@@H](c1ccccc1)N(CC(=O)N(CC(=O)N(CCCCN)CC(=O)N(CC(=O)N(CC(=O)N(CCCCN)CC(=O)N(CC(=O)N(CC(=O)N(CCCCN)CC(=O)N(CC(=O)N(CC(N)=O)Cc1ccccc1)Cc1ccccc1)Cc1ccccc1)Cc1ccccc1)Cc1ccccc1)Cc1ccccc1)Cc1ccccc1)C(=O)CNCCCCN [Peptoid 1ach-Nspe2, H-(NLys-Nspe-Npm)- (NLys-Npm-Npm)3-NH2] (H-[Nlys][Nspe][Nphe][Nlys][Nphe][Nphe][Nlys][Nphe][Nphe][Nlys][Nphe][Nphe]-NH2) came out at 6.3

Continue with the molecule presented below.
Just so you know, measured MIC E. coli for C[C@@H](c1ccccc1)N(CC(N)=O)C(=O)CN(C(=O)CN(CCCCN)C(=O)CN(C(=O)CN(C(=O)CN(CCCCN)C(=O)[C@@H]1CCCN1C(=O)CN(C(=O)CN(CCCCN)C(=O)CN(C(=O)CN(C(=O)CNCCCCN)[C@@H](C)c1ccccc1)[C@@H](C)c1ccccc1)[C@@H](C)c1ccccc1)[C@@H](C)c1ccccc1)[C@@H](C)c1ccccc1)[C@@H](C)c1ccccc1 [Peptoid 1-Pro6] (H-[Nlys][Nspe][Nspe][Nlys][Nspe]P[Nlys][Nspe][Nspe][Nlys][Nspe][Nspe]-NH2) came out at 12.5
